Documented protein stability index across a set of variants
B1: KRT34 (parent)
chain: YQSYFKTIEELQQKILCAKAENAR

- Variants of: B1
- EXPERIMENTAL_DETAILS: protein stability index of a GFP-peptide fusion (GPS, HEK-293T) (PSI 1-6); higher = more stable;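 note: lentivirally expressed fusions sorted by FACS into six bins by GFP to DsRed ratio, PSI derived from sequencing read proportions per bin multiplied by bin number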
- ASSAY_CONDITIONS: c terminus: a fixed tail appended

F5D 3.68
Q12F 2.02
E21S 1.96
E9L 1.53
E10C 1.44

variant Y1R , protein stability index observed: 2.94

variant I8R , protein stability index observed: 2.09

variant Q13R , protein stability index observed: 2.16

variant K6L , protein stability index observed: 2.3

variant A18F , protein stability index observed: 2.75

variant K19R , protein stability index observed: 1.91

variant A20I , protein stability index observed: 1.86

variant A18R , protein stability index observed: 1.68

variant Y1G , protein stability index observed: 3.95

variant L16E , protein stability index observed: 2.63

variant S3F , protein stability index observed: 1.8

variant S3P , protein stability index observed: 1.97

variant F5V , protein stability index observed: 1.9

variant R24T , protein stability index observed: 1.64

variant N22S , protein stability index observed: 2.46

variant Y4K , protein stability index observed: 1.52

variant Y4I , protein stability index observed: 2.27
